In this section we review reported solubility at 24 h values for a set of molecules.
test: physchem; settings: pH 4.5, aqueous buffer, kinetic from dmso stock, Solubility (pH 4.5)
measure: solubility at 24 h (µg/mL)

>>> recordednumber("COC[C@H]1N(c2cccc(-c3cccc(Cl)c3OCc3cc(C)c4c(c3)CCN(C3CCOCC3)C4)n2)C[C@@H]2C[C@@]21C(=O)O")
144
>>> recordednumber("Cc1c(COc2ccccc2-c2cccc(N3CC[C@@]4(C(=O)O)C[C@H]4C3)n2)ccc2c1CCN(C[C@H]1COCCO1)C2")
110
>>> recordednumber("Cc1cccc(-c2cccc(N3C[C@@H]4C[C@]4(C(=O)O)C3)n2)c1OCc1ccc2c(c1C)CCN(C1COC1)CC2")
97
>>> recordednumber("Cc1cc(C)c(OCc2ccc3c(c2C)CCN(C2CCOCC2)C3)c(-c2csc(N3C[C@@H]4C[C@]4(C(=O)O)C3)n2)c1")
70
>>> recordednumber("Cc1ccc(OCc2ccc3c(c2)CCN(C2CCOCC2)C3)c(-c2csc(N3C[C@@H]4C[C@]4(C(=O)O)[C@H]3C)n2)c1")
72
>>> recordednumber("Cc1cc(COc2c(C)cccc2-c2csc(N3C[C@H]4C[C@@]4(C(=O)O)[C@@H]3C)n2)cc2c1CN(C1CCOCC1)CC2")
72
>>> recordednumber("CCO[C@@H]1CN(c2nc(-c3cccc(C)c3OCc3cc(F)c4c(c3)CCN(C3CCOCC3)C4)cs2)CC[C@@H]1C(=O)O")
109
>>> recordednumber("CO[C@H]1CN(c2nc(-c3cccc(Cl)c3OCc3ccc4c(c3)CCN(C3CCOCC3)C[C@H]4C)cs2)CC[C@H]1C(=O)O")
68.3
>>> recordednumber("Cc1c(COc2ccccc2-c2ccnc(N3C[C@@H]4C[C@]4(C(=O)O)C3)n2)ccc2c1CCN(C1CCOCC1)C2")
50
>>> recordednumber("COc1ccc(OCc2ccc3c(c2C)CCN(C2COC2)C3)c(-c2csc(N3CC[C@@]4(C(=O)O)C[C@H]4C3)n2)c1")
10.1
>>> recordednumber("COC[C@H]1N(c2cccc(-c3cccc(C)c3OCc3ccc4c(n3)CCN(C3CCOCC3)C4)n2)C[C@@H]2C[C@@]21C(=O)O")
123
>>> recordednumber("CO[C@@H]1CN(c2nc(-c3cc(F)cc(C)c3OCc3ccc4c(c3)[C@@H](C)CN(C3CCOCC3)CC4)cs2)CC[C@@H]1C(=O)O")
59.4
>>> recordednumber("COC[C@H]1N(c2cccc(-c3cccc(C)c3OCc3ccc4c(c3)CCN(C3CCOCC3)C4)n2)C[C@@H]2C[C@@]21C(=O)O")
110
>>> recordednumber("CO[C@H]1CN(c2cccc(-c3cc(C)ccc3OCc3cc(C)c4c(c3)CCN(C3CCOCC3)C4)n2)CC[C@H]1C(=O)O")
100
>>> recordednumber("Cc1cc(C)c(OCc2ccc3c(c2)CCN(C2CCOCC2)C3)c(-c2csc(N3C[C@@H]4C[C@]4(C(=O)O)C3)n2)c1")
71
>>> recordednumber("CO[C@@H]1CN(c2cccc(-c3cccc(Cl)c3OCc3cc(C)c4c(c3)CCN(C3CCOCC3)C4)n2)CC[C@@H]1C(=O)O")
69.5
>>> recordednumber("Cc1cc(COc2c(C)cccc2-c2csc(N3CC[C@@]4(C(=O)O)C[C@H]4C3)n2)cc2c1CN(C1CCOCC1)CC2")
68
>>> recordednumber("Cc1ccc(OCc2ccc3c(c2C)CCN(C2CCOCC2)C3)c(-c2csc(N3C[C@@H]4C[C@]4(C(=O)O)C3)n2)c1")
59
>>> recordednumber("Cc1c(COc2ccccc2-c2cccc(N3CC[C@@]4(C(=O)O)C[C@H]4C3)n2)ccc2c1CCN([C@H]1CCOC1)C2")
120
>>> recordednumber("CO[C@@H]1CN(c2nc(-c3cccc(C)c3OCc3cc(F)c4c(c3)CCN(C3CCOCC3)CC4)cs2)CC[C@@H]1C(=O)O")
109
>>> recordednumber("Cc1nccnc1C(C)N1CCc2c(ccc(COc3ccccc3-c3cccc(N4CC[C@@]5(C(=O)O)C[C@H]5C4)n3)c2C)C1 (stereo partly shown)")
116
>>> recordednumber("Cc1ccc(OCc2ccc3c(c2C)CCN(C2CCOCC2)C3)c(-c2cccc(N3C[C@@H]4C[C@]4(C(=O)O)C3)n2)c1")
93
>>> recordednumber("Cc1cc(COc2c(C)cccc2-c2csc(N3CC[C@@]4(C(=O)O)C[C@H]4C3)n2)c(C)c2c1CN(C1CCOCC1)CC2")
79
>>> recordednumber("CO[C@H]1CN(c2nc(-c3cc(C)ccc3OCc3ccc4c(c3C)CCN(C3CCOCC3)C4)cs2)CC[C@H]1C(=O)O")
72
>>> recordednumber("COCc1cc(COc2c(C)cccc2-c2cccc(N3CC[C@H](C(=O)O)[C@H](OC)C3)n2)cc2c1CN(C1COC1)CC2")
111
